- Measurement Notes: Tested for the lethality dose against barnacle cyprids of Balanus amphitrite
- Particulars: Amphibalanus amphitrite; read-out: LD50 (the source's name)
LC50 values, listed per item
The response must be a number in µg/mL with no trailing unit.

Completed entries (count: 2):
CCCCCCCC(=O)NCCc1cc(Br)c(OC)c(Br)c1 = 1
CCCCCCCCNCCc1cc(Br)c(OC)c(Br)c1 = 0.03

Query :: Name the reported LC50 value associated with the molecule "COc1c(Br)cc(CCN)cc1Br"
Result :: 0.2
